These compounds were tested on UniProt:P25103; IC50 is the recorded read-out.
Sequence (P25103 whole entry): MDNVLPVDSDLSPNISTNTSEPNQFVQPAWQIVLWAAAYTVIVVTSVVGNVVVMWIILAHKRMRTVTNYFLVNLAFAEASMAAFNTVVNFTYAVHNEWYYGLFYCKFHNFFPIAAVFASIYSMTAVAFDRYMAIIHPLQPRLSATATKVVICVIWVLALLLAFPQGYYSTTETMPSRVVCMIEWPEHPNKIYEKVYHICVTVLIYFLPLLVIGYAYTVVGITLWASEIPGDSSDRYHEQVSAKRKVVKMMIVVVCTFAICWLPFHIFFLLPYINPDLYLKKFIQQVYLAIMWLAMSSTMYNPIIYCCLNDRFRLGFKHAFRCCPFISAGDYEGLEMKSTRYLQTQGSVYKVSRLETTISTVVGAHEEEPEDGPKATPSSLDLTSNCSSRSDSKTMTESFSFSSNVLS
PROPERTY_MEASURED: IC50 (nM)

Solved entries:
{"columns": ["INPUT_SMILES", "IC50 / nM"],
 "data": [
  ["OC[C@@H]1C[C@H](OCc2ccccc2)[C@@H](OCc2ccccc2)[C@H](OCCc2c[nH]c3ccccc23)O1", 400],
  ["CC(=O)NCCCCCOC[C@H]1O[C@@H](OCCc2c[nH]c3ccccc23)[C@H](OCc2ccccc2)[C@@H](OCc2ccccc2)[C@@H]1OCc1ccccc1", 56],
  ["CO[C@@H]1O[C@H](COCCCCCN)[C@@H](OCc2ccccc2)[C@H](OCc2ccccc2)[C@H]1OCc1ccccc1", 400],
  ["OCCCCCNC[C@H]1O[C@@H](OCCc2c[nH]c3ccccc23)[C@H](OCc2ccccc2)C[C@@H]1OCc1ccccc1", 180]
]}

a. OCCCCCNC[C@H]1O[C@@H](OCCc2c[nH]c3ccccc23)[C@H](OCc2ccccc2)[C@@H](OCc2ccccc2)[C@@H]1OCc1ccccc1
b. CO[C@@H]1O[C@H](CO)[C@@H](OCc2ccccc2)[C@H](OCc2ccccc2)[C@H]1OCc1ccccc1
Challenge: Lab notebook, comparison: a versus b , higher IC50 goes to which? Output the label that corresponds to your choice.
Response given: b

* * *

TARGET_OR_TEST_SYSTEM: hSSTR3 (Homo sapiens, UniProt P32745)
Sequence (P32745 whole entry): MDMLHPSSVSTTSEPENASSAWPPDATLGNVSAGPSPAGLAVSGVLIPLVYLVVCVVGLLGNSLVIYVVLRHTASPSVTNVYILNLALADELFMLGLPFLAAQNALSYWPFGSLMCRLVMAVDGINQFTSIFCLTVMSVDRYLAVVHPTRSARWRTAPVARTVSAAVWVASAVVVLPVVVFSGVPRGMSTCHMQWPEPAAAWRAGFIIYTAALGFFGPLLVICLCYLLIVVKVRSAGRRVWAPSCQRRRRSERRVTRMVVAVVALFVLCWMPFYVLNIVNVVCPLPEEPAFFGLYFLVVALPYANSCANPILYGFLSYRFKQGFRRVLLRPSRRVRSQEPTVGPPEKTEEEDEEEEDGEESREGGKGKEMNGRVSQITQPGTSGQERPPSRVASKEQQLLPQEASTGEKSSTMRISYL
EXPERIMENT: Binding at human SRIF receptor subtype hSSTR3
ASSAY_SETUP: read-out: Ki at SSTR 3
PROPERTY_MEASURED: pKi
pKi is a log-scale quantity: -log10 of the concentration expressed in molar.

Challenge: Please look up its pKi: NCCCCCOC[C@@H]1O[C@H](OCCc2c[nH]c3ccccc23)[C@H](OCc2c[nH]cn2)[C@H](OCc2ccccc2)[C@H]1OCc1ccccc1 [IV-72]
Response given: 6.05

* * *

System: SRIF receptors on AtT-20 cells
EXPERIMENT: Binding at SRIF receptors of AtT-20 cells (Examples 104-110, Tables 1-3)
Design: species or system mouse
ASSAY_SETUP: TABLE 3 (Example 108); read-out: AtT-20 IC50
pIC50: −log10 of the molar value.
PROPERTY_MEASURED: pIC50

Solved entries:
{"columns": ["COMPOUND", "TARGET_OR_TEST_SYSTEM", "PROPERTY_MEASURED", "MEAS_VALUE"],
 "data": [
  ["NCCCCCOC[C@H]1O[C@@H](OCCc2c[nH]c3ccccc23)[C@H](OCc2c[nH]cn2)C[C@@H]1OCc1ccccc1", "SRIF receptors on AtT-20 cells", "pIC50", 5.39],
  ["NCCCCCOC[C@H]1O[C@@H](OCCc2c[nH]c3ccccc23)[C@H](OCc2ccccc2)C[C@@H]1OCc1ccccc1", "SRIF receptors on AtT-20 cells", "pIC50", 5.08]
]}

a. CO[C@@H]1O[C@H](COCCCCCN)[C@@H](OCc2ccccc2)[C@H](OCc2ccccc2)[C@H]1OCc1ccccc1
b. NCCCCC(N)NC[C@H]1O[C@@H](OCCc2c[nH]c3ccccc23)[C@H](OCc2ccccc2)[C@@H](OCc2ccccc2)[C@@H]1OCc1ccccc1 (stereo partly shown)
Challenge: Given the two records a and b , choose the one whose pIC50 value is lower. Output the label that corresponds to your choice.
Response given: b

* * *

TARGET_OR_TEST_SYSTEM: hSSTR2 (Homo sapiens)
Sequence (P30874 whole entry): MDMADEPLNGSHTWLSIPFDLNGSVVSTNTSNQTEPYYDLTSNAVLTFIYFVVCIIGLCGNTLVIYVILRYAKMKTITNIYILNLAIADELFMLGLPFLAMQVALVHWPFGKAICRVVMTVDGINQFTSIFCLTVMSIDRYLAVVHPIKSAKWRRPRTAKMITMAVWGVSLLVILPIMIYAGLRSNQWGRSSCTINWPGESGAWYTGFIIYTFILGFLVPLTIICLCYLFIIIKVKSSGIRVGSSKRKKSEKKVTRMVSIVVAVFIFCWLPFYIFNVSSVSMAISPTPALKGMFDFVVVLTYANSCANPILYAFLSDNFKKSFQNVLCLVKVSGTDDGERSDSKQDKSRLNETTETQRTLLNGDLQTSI
EXPERIMENT: Binding at human SRIF receptor subtype hSSTR2
ASSAY_SETUP: read-out: Ki at SSTR 2
PROPERTY_MEASURED: pKi
pKi is a log-scale quantity: -log10 of the concentration expressed in molar.

Challenge: Please look up its pKi: NCCCCCOC[C@@H]1O[C@H](OCCc2c[nH]c3ccccc23)[C@H](OCc2c[nH]cn2)[C@H](OCc2ccccc2)[C@H]1OCc1ccccc1 [IV-72]
Response given: 6.10

* * *

These compounds were tested on hSSTR5 (Homo sapiens); Ki is the recorded read-out.
Sequence (P35346 whole entry): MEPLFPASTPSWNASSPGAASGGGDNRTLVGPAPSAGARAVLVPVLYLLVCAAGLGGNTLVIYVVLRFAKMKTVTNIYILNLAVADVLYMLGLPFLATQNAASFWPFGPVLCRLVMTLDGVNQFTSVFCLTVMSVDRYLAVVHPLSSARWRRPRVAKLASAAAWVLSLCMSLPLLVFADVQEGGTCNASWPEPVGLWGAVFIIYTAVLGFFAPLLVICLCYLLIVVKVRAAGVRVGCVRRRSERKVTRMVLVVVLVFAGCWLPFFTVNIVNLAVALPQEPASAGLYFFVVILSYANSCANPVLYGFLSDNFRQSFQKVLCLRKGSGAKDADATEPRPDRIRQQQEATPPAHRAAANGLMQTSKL
PROPERTY_MEASURED: Ki (µM)

{"columns": ["INPUT_SMILES", "PROPERTY_MEASURED", "MEAS_VALUE"],
 "data": [
  ["CO[C@@H]1O[C@H](COCCCCCN)[C@@H](OCc2ccccc2)[C@H](OCc2ccccc2)[C@H]1OCc1ccccc1", "Ki", 3],
  ["NCCCCCOC[C@H]1O[C@@H](OCCc2c[nH]c3ccccc23)[C@H](OCc2c[nH]cn2)C[C@@H]1OCc1ccccc1", "Ki", 4]
]}

* * *

Tested on: SRIF receptors on AtT-20 cells
EXPERIMENT: Binding at SRIF receptors of AtT-20 cells (Examples 104-110, Tables 1-3)
Design: species or system mouse
ASSAY_SETUP: TABLE 1 (Example 105); read-out: AtT-20 cells 50 IC
PROPERTY_MEASURED: IC50 (µM)

{"columns": ["COMPOUND", "MEAS_VALUE"],
 "data": [
  ["NCCCCCOC[C@H]1O[C@@H](OCCc2c[nH]c3ccccc23)[C@H](OCc2ccccc2)C[C@@H]1OCc1ccccc1 [III-5a]", 8.4],
  ["CO[C@@H]1O[C@H](COCCCCCN)[C@@H](OCc2ccccc2)[C@H](OCc2ccccc2)[C@H]1OCc1ccccc1 [III-8a]", 5.9],
  ["CO[C@@H]1O[C@H](COCCCCCN)[C@@H](OCc2ccccc2)[C@H](OCc2c[nH]cn2)[C@H]1OCc1ccccc1 [IV-39]", 5.6],
  ["NCCCCCCOC[C@H]1O[C@@H](OCCc2c[nH]c3ccccc23)[C@H](OCc2ccccc2)C[C@@H]1OCc1ccccc1 [III-5b]", 7]
]}

* * *

System: SRIF receptors on AtT-20 cells
EXPERIMENT: Binding at SRIF receptors of AtT-20 cells (Examples 104-110, Tables 1-3)
Parameters: species or system mouse
ASSAY_SETUP: read-out: IC50 at AtT-20 cell membranes
PROPERTY_MEASURED: IC50 (µM)

{"columns": ["INPUT_SMILES", "PROPERTY_MEASURED", "MEAS_VALUE"],
 "data": [
  ["CO[C@@H]1O[C@H](COCCCCCN)[C@@H](OCc2ccccc2)[C@H](OCc2c[nH]cn2)[C@H]1OCc1ccccc1", "IC50", 5.6],
  ["CO[C@@H]1O[C@H](COCCCCCN)[C@@H](OCc2ccccc2)[C@H](OCc2ccccc2)[C@H]1OCc1ccccc1", "IC50", 5.9]
]}

* * *

TARGET_OR_TEST_SYSTEM: hSSTR1 (Homo sapiens, UniProt P30872)
Sequence (P30872 whole entry): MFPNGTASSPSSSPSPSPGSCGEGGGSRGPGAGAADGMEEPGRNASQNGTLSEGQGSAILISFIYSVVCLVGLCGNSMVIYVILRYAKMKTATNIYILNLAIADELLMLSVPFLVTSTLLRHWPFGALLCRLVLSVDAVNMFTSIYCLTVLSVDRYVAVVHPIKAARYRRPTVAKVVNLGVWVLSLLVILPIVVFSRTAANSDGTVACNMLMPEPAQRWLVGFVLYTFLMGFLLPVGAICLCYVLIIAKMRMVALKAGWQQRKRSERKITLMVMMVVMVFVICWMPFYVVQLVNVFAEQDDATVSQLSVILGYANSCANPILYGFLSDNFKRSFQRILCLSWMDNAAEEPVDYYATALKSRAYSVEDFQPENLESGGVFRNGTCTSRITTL
EXPERIMENT: Binding at human SRIF receptor subtype hSSTR1
ASSAY_SETUP: TABLE 3; read-out: hSSTR 1 Ki
PROPERTY_MEASURED: Ki (nM)

Solved entries:
{"columns": ["COMPOUND", "UNIT_ABBREVIATION", "Ki"],
 "data": [
  ["NCCCCCOC[C@H]1O[C@@H](OCCc2c[nH]c3ccccc23)[C@H](OCc2c[nH]cn2)C[C@@H]1OCc1ccccc1 [IV-60]", "nM", 6800],
  ["NCCCCC(N)NC[C@H]1O[C@@H](OCCc2c[nH]c3ccccc23)[C@H](OCc2ccccc2)[C@@H](OCc2ccccc2)[C@@H]1OCc1ccccc1 (some centres unmarked) [IV-42]", "nM", 2100],
  ["CO[C@@H]1O[C@H](COCCCCCN)[C@@H](OCc2ccccc2)[C@H](OCc2ccccc2)[C@H]1OCc1ccccc1 [III-8a]", "nM", 2400]
]}

1. NCCCCCOC[C@H]1O[C@@H](OCCc2c[nH]c3ccccc23)[C@H](OCc2ccccc2)C[C@@H]1OCc1ccccc1 [III-5a]
2. NCCCCCOC[C@@H]1O[C@H](OCCc2c[nH]c3ccccc23)[C@H](OCc2c[nH]cn2)[C@H](OCc2ccccc2)[C@H]1OCc1ccccc1 [IV-72]
Challenge: Given the two records 1 and 2 , choose the one whose Ki value is lower. Output the label that corresponds to your choice.
Response given: 2
(2: 300 nM, 1: 4100 nM)

* * *

TARGET_OR_TEST_SYSTEM: hSSTR2 (Homo sapiens)
EXPERIMENT: Binding at human SRIF receptor subtype hSSTR2
ASSAY_SETUP: TABLE 3; read-out: hSSTR 2 Ki
PROPERTY_MEASURED: Ki (µM)

{"columns": ["COMPOUND", "Ki (µM)"],
 "data": [
  ["NCCCCCOC[C@H]1O[C@@H](OCCc2c[nH]c3ccccc23)[C@H](OCc2c[nH]cn2)C[C@@H]1OCc1ccccc1", 4.6],
  ["NCCCCC(N)NC[C@H]1O[C@@H](OCCc2c[nH]c3ccccc23)[C@H](OCc2ccccc2)[C@@H](OCc2ccccc2)[C@@H]1OCc1ccccc1 (some centres unmarked)", 0.6]
]}

I. NCCCCCOC[C@@H]1O[C@H](OCCc2c[nH]c3ccccc23)[C@H](OCc2c[nH]cn2)[C@H](OCc2ccccc2)[C@H]1OCc1ccccc1
II. CO[C@@H]1O[C@H](COCCCCCN)[C@@H](OCc2ccccc2)[C@H](OCc2ccccc2)[C@H]1OCc1ccccc1
III. NCCCCCOC[C@H]1O[C@@H](OCCc2c[nH]c3ccccc23)[C@H](OCc2ccccc2)C[C@@H]1OCc1ccccc1
Challenge: Order these by Ki, descending, and give the full ranking. Provide the ranking by listing each label in its place in the requested order.
Response given: II, III, I
(II: 4.6 µM, III: 3.1 µM, I: 0.8 µM)
